- Tested on: 786-0
- Test protocol: Cytotoxicity against human 786-0 cells by MTT assay
- Type: functional, cell-based
Label key: Yes means IC50 under 30 µM; No means IC50 of 30 µM or more.

Record excerpt, results attached:
molecule=NCCNc1nccc2c3ccccc3n(CCCc3ccccc3)c12 target_under_test=786-0 assigned_class=Yes
molecule=CCN(CC)CCCNC(=O)c1nccc2c3ccccc3n(CCCc3ccccc3)c12 target_under_test=786-0 assigned_class=No
molecule=NCCCCNc1nccc2c3ccccc3n(CCCc3ccccc3)c12 target_under_test=786-0 assigned_class=Yes
molecule=CCCCn1c2ccccc2c2ccnc(Br)c21 target_under_test=786-0 assigned_class=No
molecule=OCCNc1[nH]ccc2c3ccccc3nc1-2 target_under_test=786-0 assigned_class=No
molecule=NCCCCCCNC(=O)c1nccc2c1[nH]c1ccccc12 target_under_test=786-0 assigned_class=No
molecule=NCCNc1nccc2c1[nH]c1ccccc12 target_under_test=786-0 assigned_class=No
molecule=Fc1ccc(Cn2c3ccccc3c3ccnc(Br)c32)cc1 target_under_test=786-0 assigned_class=No
molecule=NCCNC(=O)c1nccc2c3ccccc3n(CCCc3ccccc3)c12 target_under_test=786-0 assigned_class=Yes
molecule=CC[N+](CC)(CCCNC(=O)c1nccc2c1[nH]c1ccccc12)Cc1ccccc1 target_under_test=786-0 assigned_class=No

For CCCCn1c2ccccc2c2ccnc(NCCN)c21 , is the recorded IC50 below the cut-off of 30 µM? Yes

For NCCNc1nccc2c3ccccc3n(Cc3c(F)c(F)c(F)c(F)c3F)c12 , is the recorded IC50 below the cut-off of 30 µM? Yes

For Brc1nccc2c3ccccc3n(CCCc3ccccc3)c12 , is the recorded IC50 below the cut-off of 30 µM? No

====

- System: OS-RC-2
- Test protocol: Cytotoxicity against human OS-RC2 cells by MTT assay
- Assay type: functional, cell-based
Readout kind: IC50 (µM)
Numbers only, in µM.

molecule=NCCNC(=O)c1nccc2c1[nH]c1ccccc12 meas_value=63.9
molecule=NCCNC(=O)c1nccc2c3ccccc3n(CCCc3ccccc3)c12 meas_value=15.7
molecule=NCCCCCCNC(=O)c1nccc2c1[nH]c1ccccc12 meas_value=58.5
molecule=CCN(CC)CCCNC(=O)c1nccc2c1[nH]c1ccccc12 meas_value=93.9
molecule=NCCNc1nccc2c3ccccc3n(Cc3ccc(F)cc3)c12 meas_value=16.3
molecule=NCCNc1nccc2c3ccccc3n(Cc3c(F)c(F)c(F)c(F)c3F)c12 meas_value=12
molecule=NCCCCCCNc1nccc2c3ccccc3n(CCCc3ccccc3)c12 meas_value=8.4
molecule=NCCCCNc1nccc2c3ccccc3n(CCCc3ccccc3)c12 meas_value=4.2

State the recorded IC50 for every item in the following list.
1. CCN(CC)CCCNC(=O)c1nccc2c3ccccc3n(CCCc3ccccc3)c12
2. CCCCn1c2ccccc2c2ccnc(NCCN)c21

1. 36.9
2. 9.3

State the recorded IC50 for every item in the following list.
1. NCCNc1nccc2c3ccccc3n(CCCc3ccccc3)c12
2. CCCCn1c2ccccc2c2ccnc(Br)c21
3. OCCNc1[nH]ccc2c3ccccc3nc1-2
4. NCCNc1nccc2c1[nH]c1ccccc12
5. Brc1nccc2c3ccccc3n(CCCc3ccccc3)c12

1. 4.6
2. 136
3. 220
4. 40
5. 93.9

====

Kindly state pIC50 for each of the entries shown.
- Test system: HepG2
- Test protocol: Cytotoxicity against human HepG2 cells by MTT assay
- Type: functional, cell-based
Give bare numbers, as −log10 of the molar value.

molecule=NCCCCNc1nccc2c3ccccc3n(CCCc3ccccc3)c12 meas_value=5.40
molecule=NCCCCCCNC(=O)c1nccc2c1[nH]c1ccccc12 meas_value=4.07
molecule=NCCNc1nccc2c1[nH]c1ccccc12 meas_value=4.51
molecule=NCCNc1nccc2c3ccccc3n(Cc3ccc(F)cc3)c12 meas_value=5.36
molecule=CCN(CC)CCCNC(=O)c1nccc2c1[nH]c1ccccc12 meas_value=3.61

State the recorded pIC50 for every item in the following list.
1. NCCNc1nccc2c3ccccc3n(Cc3c(F)c(F)c(F)c(F)c3F)c12
2. CCN(CC)CCCNC(=O)c1nccc2c3ccccc3n(CCCc3ccccc3)c12
3. NCCCCCCNc1nccc2c3ccccc3n(CCCc3ccccc3)c12
4. CCCCn1c2ccccc2c2ccnc(NCCN)c21

4.89
4.66
4.92
5.18

State the recorded pIC50 for every item in the following list.
1. NCCNC(=O)c1nccc2c3ccccc3n(CCCc3ccccc3)c12
2. NCCNC(=O)c1nccc2c1[nH]c1ccccc12
3. OCCNc1[nH]ccc2c3ccccc3nc1-2
4. NCCNc1nccc2c3ccccc3n(CCCc3ccccc3)c12

[4.80, 3.91, 3.89, 4.88]

====

- System: MCF7
- Test protocol: Cytotoxicity against human MCF7 cells by MTT assay
- Assay type: functional, cell-based
Readout kind: IC50 (µM)
Answers are plain numbers, in µM.

molecule=NCCNc1nccc2c3ccccc3n(Cc3c(F)c(F)c(F)c(F)c3F)c12 readout_kind=IC50 meas_value=15.1
molecule=NCCCCCCNC(=O)c1nccc2c1[nH]c1ccccc12 readout_kind=IC50 meas_value=46.8

State the recorded IC50 for every item in the following list.
1. NCCCCNc1nccc2c3ccccc3n(CCCc3ccccc3)c12
2. CCN(CC)CCCNC(=O)c1nccc2c1[nH]c1ccccc12
3. NCCNC(=O)c1nccc2c3ccccc3n(CCCc3ccccc3)c12

12.8
164
22.3

State the recorded IC50 for every item in the following list.
1. NCCCCCCNc1nccc2c3ccccc3n(CCCc3ccccc3)c12
2. CCN(CC)CCCNC(=O)c1nccc2c3ccccc3n(CCCc3ccccc3)c12
3. CCCCn1c2ccccc2c2ccnc(NCCN)c21

[17.9, 31.4, 33.6]

====

- Test system: CWR22R
- Test protocol: Cytotoxicity against human 22Rv1 cells by MTT assay
- Assay type: functional, cell-based
Readout kind: pIC50
Answers are plain numbers, as −log10 of the molar value.

molecule=NCCNC(=O)c1nccc2c3ccccc3n(CCCc3ccccc3)c12 meas_value=4.97
molecule=OCCNc1[nH]ccc2c3ccccc3nc1-2 meas_value=3.87
molecule=NCCNc1nccc2c3ccccc3n(Cc3ccc(F)cc3)c12 meas_value=4.75

State the recorded pIC50 for every item in the following list.
1. CCN(CC)CCCNC(=O)c1nccc2c3ccccc3n(CCCc3ccccc3)c12
2. NCCNc1nccc2c3ccccc3n(Cc3c(F)c(F)c(F)c(F)c3F)c12
3. NCCCCCCNc1nccc2c3ccccc3n(CCCc3ccccc3)c12

4.57
4.90
4.94

====

- Test system: MCF7
- Test protocol: Cytotoxicity against human MCF7 cells by MTT assay
- Assay type: functional, cell-based
pIC50: −log10 of the molar value.
Classification field: enter T for pIC50 values not below 4, F for values below it.

Record excerpt, results attached:
molecule=CC[N+](CC)(CCCNC(=O)c1nccc2c1[nH]c1ccccc12)Cc1ccccc1 assigned_class=T
molecule=CCCCn1c2ccccc2c2ccnc(Br)c21 assigned_class=F
molecule=NCCNc1nccc2c3ccccc3n(Cc3ccc(F)cc3)c12 assigned_class=T
molecule=CC[N+](C)(CC)CCCNC(=O)c1nccc2c1[nH]c1ccccc12 assigned_class=F

Moving on to the next molecule.
Evaluate NCCNc1nccc2c3ccccc3n(CCCc3ccccc3)c12 : pIC50 at minimum 4? T

====

- System: CWR22R
- Test protocol: Cytotoxicity against human 22Rv1 cells by MTT assay
- Format: functional, cell-based
Kindly state IC50 for each of the entries shown.
One number for each entry, in µM.

molecule=CCCCn1c2ccccc2c2ccnc(NCCN)c21 display_unit=µM meas_value=14.2
molecule=Brc1nccc2c3ccccc3n(CCCc3ccccc3)c12 display_unit=µM meas_value=88
molecule=NCCNC(=O)c1nccc2c1[nH]c1ccccc12 display_unit=µM meas_value=124
molecule=NCCCCCCNC(=O)c1nccc2c1[nH]c1ccccc12 display_unit=µM meas_value=33.6
molecule=NCCCCNc1nccc2c3ccccc3n(CCCc3ccccc3)c12 display_unit=µM meas_value=2.9

State the recorded IC50 for every item in the following list.
1. CCN(CC)CCCNC(=O)c1nccc2c1[nH]c1ccccc12
2. NCCNc1nccc2c3ccccc3n(CCCc3ccccc3)c12

1. 46.2
2. 8.6

====

- Test system: 769-P
- Test protocol: Cytotoxicity against human 769-P cells by MTT assay
- Format: functional, cell-based
Readout kind: pIC50
Answers are plain numbers, as −log10 of the molar value.

Before answering, review these 2 worked examples.
molecule=Brc1nccc2c3ccccc3n(CCCc3ccccc3)c12 meas_value=3.91
molecule=NCCNc1nccc2c3ccccc3n(Cc3c(F)c(F)c(F)c(F)c3F)c12 meas_value=4.98

State the recorded pIC50 for every item in the following list.
1. CCN(CC)CCCNC(=O)c1nccc2c1[nH]c1ccccc12
2. CCN(CC)CCCNC(=O)c1nccc2c3ccccc3n(CCCc3ccccc3)c12
3. NCCNC(=O)c1nccc2c3ccccc3n(CCCc3ccccc3)c12
4. CC[N+](CC)(CCCNC(=O)c1nccc2c1[nH]c1ccccc12)Cc1ccccc1
5. NCCNc1nccc2c1[nH]c1ccccc12

1. 4.27
2. 4.21
3. 4.49
4. 4.00
5. 4.50

State the recorded pIC50 for every item in the following list.
1. NCCNc1nccc2c3ccccc3n(Cc3ccc(F)cc3)c12
2. CCCCn1c2ccccc2c2ccnc(NCCN)c21

5.74
4.16

State the recorded pIC50 for every item in the following list.
1. NCCNC(=O)c1nccc2c1[nH]c1ccccc12
2. OCCNc1[nH]ccc2c3ccccc3nc1-2
3. NCCCCNc1nccc2c3ccccc3n(CCCc3ccccc3)c12
4. NCCNc1nccc2c3ccccc3n(CCCc3ccccc3)c12
5. NCCCCCCNc1nccc2c3ccccc3n(CCCc3ccccc3)c12
6. NCCCCCCNC(=O)c1nccc2c1[nH]c1ccccc12
7. Fc1ccc(Cn2c3ccccc3c3ccnc(Br)c32)cc1

3.91
3.57
5.66
4.95
4.87
4.12
3.60
